Study system: HA1 adenosine receptor (Homo sapiens)
Sequence (P30542 1-326): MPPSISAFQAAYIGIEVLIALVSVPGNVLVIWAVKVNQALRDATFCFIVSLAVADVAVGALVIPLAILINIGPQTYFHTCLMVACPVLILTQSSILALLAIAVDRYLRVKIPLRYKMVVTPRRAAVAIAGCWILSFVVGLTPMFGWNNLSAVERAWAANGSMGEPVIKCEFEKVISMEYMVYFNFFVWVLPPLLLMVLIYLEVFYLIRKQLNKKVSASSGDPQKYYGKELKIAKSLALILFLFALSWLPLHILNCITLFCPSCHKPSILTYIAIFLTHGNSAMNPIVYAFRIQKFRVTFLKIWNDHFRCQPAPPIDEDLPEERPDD
Assay text: Human adenosine A1 receptor affinity (Ki hA1)
Format: binding
Conditions used: affinity to human adenosine A1 receptor
pKi: −log10 of the molar value.
// reported pKi for each item listed
Experimental endpoint: pKi

- C=CCN(C)C(=O)c1cc(N)n2nc(-c3ccc(Br)o3)nc2c1: 6.74
- COc1ccc(CNC(=O)c2cc(N)n3nc(-c4ccco4)nc3c2)cc1: 6.52
- COc1ccccc1CNC(=O)c1cc(N)n2nc(-c3ccc[nH]3)nc2c1: 5.31
- CC1CCCN1C(=O)c1cc(N)n2nc(-c3ccc(Cl)o3)nc2c1 (stereo not shown): 6.30
- Nc1cc(C(=O)NCc2ccccc2Cl)cc2nc(-c3cc(Br)co3)nn12: 7.76
- Nc1cc(C(=O)N2CCCCC2)cc2nc(-c3ccccn3)nn12: 5.22
- Nc1cc(C(=O)NCc2ccccc2)cc2nc(-c3ccccn3)nn12: 6.74
- CCN(CC)C(=O)c1cc(N)n2nc(-c3ccccc3O)nc2c1: 6.15
- Nc1cc(C(=O)N2CCCCCCC2)cc2nc(-c3ccc(Br)o3)nn12: 7.43
- C=CCN(C)C(=O)c1cc(N)n2nc(-c3nccs3)nc2c1: 5.50
- Nc1cc(C(=O)N2CC=CCC2)cc2nc(-c3ccc(Cl)o3)nn12: 6.56
- CCN(C(=O)c1cc(N)n2nc(-c3ccc(C)s3)nc2c1)C(C)C: 6.61
- COc1ccc(CNC(=O)c2cc(N)n3nc(-c4ccc(C)o4)nc3c2)cc1: 5.81
- Cn1cccc1-c1nc2cc(C(=O)NCc3ccccc3Cl)cc(N)n2n1: 6.59
- CC1CCC(C)N1C(=O)c1cc(N)n2nc(-c3nccs3)nc2c1 (stereo not shown): 5.72
- Nc1cc(C(=O)NC2CCCCC2)cc2nc(-c3ccoc3)nn12: 5.93
- CN(C(=O)c1cc(N)n2nc(-c3ccoc3)nc2c1)C1CCCCC1: 5.69
- COc1cc(CNC(=O)c2cc(N)n3nc(-c4ccco4)nc3c2)cc(OC)c1OC: 5.91
- CCN(CC)C(=O)c1cc(N)n2nc(-c3nccs3)nc2c1: 5.56
- CCN(Cc1ccccc1)C(=O)c1cc(N)n2nc(-c3ccc(OC)s3)nc2c1: 6.97
- Nc1cc(C(=O)N2CCN(Cc3ccccc3)CC2)cc2nc(-c3ccc(Br)o3)nn12: 6.50
- CC(C)N(Cc1ccccc1)C(=O)c1cc(N)n2nc(-c3ccco3)nc2c1: 6.65
- Cc1ccc(-c2nc3cc(C(=O)N4CCCC4)cc(N)n3n2)o1: 6.03
- CC(C)N(C)C(=O)c1cc(N)n2nc(-c3ccc(Br)o3)nc2c1: 6.96
- Nc1cc(C(=O)NCc2ccccc2Cl)cc2nc(-c3ccccc3O)nn12: 6.55
- Nc1cc(C(=O)N2CCCCC2)cc2nc(-c3ccoc3)nn12: 5.23
- CCCCN(C)C(=O)c1cc(N)n2nc(-c3nccs3)nc2c1: 5.66
- Nc1cc(C(=O)N2CCCCC2)cc2nc(-c3ccccc3)nn12: 6.03
- COc1ccccc1CNC(=O)c1cc(N)n2nc(-c3ccc(C)s3)nc2c1: 7.48
- CCN(Cc1ccccc1)C(=O)c1cc(N)n2nc(-c3nccs3)nc2c1: 6.47
- C=CCN(C)C(=O)c1cc(N)n2nc(-c3ccc(Cl)o3)nc2c1: 6.44
- COc1ccc(CNC(=O)c2cc(N)n3nc(-c4ccc(C)o4)nc3c2)cc1OC: 5.39
- CCN(C(=O)c1cc(N)n2nc(-c3ccc(Br)o3)nc2c1)C1CCCCC1: 7.21
- Nc1cc(C(=O)NCc2ccccc2Br)cc2nc(-c3cccnc3)nn12: 5.85
- Nc1cc(C(=O)N2CCCC2)cc2nc(-c3ccc(Br)o3)nn12: 6.26
- Cc1ccc(-c2nc3cc(C(=O)NCc4ccccc4Cl)cc(N)n3n2)s1: 7.43
- CC1CN(C(=O)c2cc(N)n3nc(-c4ccc(Cl)o4)nc3c2)CC(C)O1 (stereo not shown): 6.09

The reported numbers originate from patent US6506772B1.
